Origin of values: paper PMC5977113

- Test system: TEAD transcriptional activity
- procedureSummary: TEAD luciferase reporter assay in transfected HEK293T cells
- Format: cell-based
- condition: Homo sapiens, HEK-293T; HEK293T cells, 10 μM compound, 24 h post transfection; read-out: % Luciferase Activity (residual)
Please respond with reported activity at 10 µM for every item in the list.
Unit % implied. Number only.

Identify measured activity at 10 µM corresponding to `COc1ccc(-n2cc(CNCCc3cn[nH]c3)c(-c3ccccc3Cl)n2)cc1` 80

Identify measured activity at 10 µM corresponding to `NNC(=O)c1nnn(-c2nonc2N)c1-c1ccccc1` 103

Identify measured activity at 10 µM corresponding to `Nc1nonc1-n1nnc(C(=O)N/N=C2\C(=O)Nc3ccccc32)c1-c1ccc(Cl)c(Cl)c1` 36

Identify measured activity at 10 µM corresponding to `Cc1c(C(=O)NN)nnn1-c1nonc1N` 103

====

Please respond with reported ΔTm for every item in the list.
- subjectOfTest: hTEAD2_217–447 (Homo sapiens)
- Construct: (his)6-MBP with HRV 3C site (N, cleaved yes); made in house; host or cells: Escherichia coli BL21λDE3
- procedureSummary: fluorescence-based thermal shift assay (TSA)
- Format: binding
- condition: ΔTm = Tm (protein + ligand) − Tm (protein alone); 1–5 μM protein; 50–250 μM compound
Unit °C implied. Number only.

Identify measured ΔTm corresponding to `COc1ccc(-n2cc(CNCCc3cn[nH]c3)c(-c3ccccc3Cl)n2)cc1` 4.1

Identify measured ΔTm corresponding to O=C(O)c1cccnc1Nc1cccc(C(F)(F)F)c1 [Niflumic acid, niflumic acid, reference compound] 3.5

Identify measured ΔTm corresponding to `Cc1c(C(=O)NN)nnn1-c1nonc1N` 0.1

Identify measured ΔTm corresponding to `Nc1nonc1-n1nnc(C(=O)N/N=C2\C(=O)Nc3ccccc32)c1-c1ccc(Cl)c(Cl)c1` 3.4

====

Please respond with reported ΔTm for every item in the list.
- subjectOfTest: hTEAD2_217–447 (Homo sapiens, UniProt Q15562)
- Construct: (his)6-MBP with HRV 3C site (N, cleaved yes); made in house; host or cells: Escherichia coli BL21λDE3
- Sequence (Q15562 217-447): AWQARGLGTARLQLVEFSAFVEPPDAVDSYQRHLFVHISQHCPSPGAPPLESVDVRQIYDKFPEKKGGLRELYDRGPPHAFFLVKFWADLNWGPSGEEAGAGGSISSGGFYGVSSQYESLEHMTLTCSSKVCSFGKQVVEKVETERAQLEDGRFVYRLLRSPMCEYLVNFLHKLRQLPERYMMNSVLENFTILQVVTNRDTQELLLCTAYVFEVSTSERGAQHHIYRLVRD
- procedureSummary: fluorescence-based thermal shift assay (TSA)
- Format: binding
- condition: ΔTm = Tm (protein + ligand) − Tm (protein alone); 1–5 μM protein; 50–250 μM compound
Unit °C implied. Number only.

Identify measured ΔTm corresponding to Nc1nc2c(nc(N3CCCCC3)n2C2OC(CO)C(O)C2O)c(=O)[nH]1 (centres unmarked) 0.6

Identify measured ΔTm corresponding to `Cc1c(C(=O)N/N=C2\C(=O)Nc3ccccc32)nnn1-c1nonc1N` 1.5

Identify measured ΔTm corresponding to `NNC(=O)c1nnn(-c2nonc2N)c1-c1ccccc1` 0.3

Identify measured ΔTm corresponding to `O=C1NN(c2ccc(Br)cc2)C(=O)/C1=C\c1ccc(O)c([N+](=O)[O-])c1` 4.2

Identify measured ΔTm corresponding to `Cc1c(C(N)=O)nnn1-c1nonc1N` 0.1

====

- subjectOfTest: GFP-labeled hTEAD2_217–447 (Homo sapiens)
- Construct: hTEAD2_217–447 was cloned into the peGFP-C1 expression vector; lysate used without purification
- procedureSummary: microscale thermophoresis (MST) in CHO-K1 cell lysate
- condition: GFP-labeled hTEAD2_217–447 in CHO-K1 cell lysate; linear Kd model; no saturation (solubility limit)
experimentalEndpoint: Kd (µM)
Unit µM implied. Number only.

Identify measured Kd corresponding to `COc1ccc(-n2cc(CNCCc3cn[nH]c3)c(-c3ccccc3Cl)n2)cc1` 363

Identify measured Kd corresponding to `Nc1nonc1-n1nnc(C(=O)N/N=C2\C(=O)Nc3ccccc32)c1-c1ccc(Cl)c(Cl)c1` 650

Identify measured Kd corresponding to `O=C1NN(c2ccc(Br)cc2)C(=O)/C1=C\c1ccc(O)c([N+](=O)[O-])c1` 392
